Target: T1, Mouse IL-11 (mouse, UniProt P47873 22-199, limits assumed)
T1 construct: also called murine IL-11; recombinant murine IL-11
T1 sequence (looked up): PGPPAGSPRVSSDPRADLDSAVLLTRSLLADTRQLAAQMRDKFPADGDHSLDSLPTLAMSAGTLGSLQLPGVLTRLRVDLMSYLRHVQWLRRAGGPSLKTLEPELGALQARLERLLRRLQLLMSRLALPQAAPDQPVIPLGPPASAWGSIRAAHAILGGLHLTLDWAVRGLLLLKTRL
Assay: ELISA
Mark Y for reported mIL11 - average signal of 0.3 or greater; mark N for anything smaller.

Please review the following examples before continuing.
YU100-E01 (antibody) QVQLQQSGGGVVQPGRSLRLSCAASGFTFSSYGMHWVRQAPGKGLEWVAVISYDGSNKYYADSVKGRFTISRDNSKNTLYLQMNSLRAEDTAVYYCAKIGATDPLDYWGQGTLVTVSSGSASAPKLEEGEFSEARVQSALTQPASVSGSPGQSITISCTGTSNDIGAYNYVSWYQQHPGKAPKLLIYDVNNRPSGVSDRFSGSKSGNTASLTISGLQAEDEADYYCCSYAGSYSWVFGGGTKLTVLGQPKANPTVTLFPPSS = N
YU100-H04 (antibody) QVQLVESGGGVVQPGRSLRLSCAASGFTFSSYAMHWVRQAPGKGLEWVAVISYDGSNKYYADSVKGRFTISRDNSKNTLYLQMNSLRAEDTAVYYCARIMGYDYGDYDVVDYWGQGTLVTVSSGSASAPKLEEGEFSEARVQSALTQPASVSGSPGQSITISCTGTSSDIGVYNYVSWYQQHPGKAPKLMIYDVSKRPSGVPDRFSGSKSGNTASLTISGLQAEDEADYYCCSYAGSYTWVFGGGTKLTVL = Y
YU112-E07 (antibody) QVQLVQSGGGVVQPGRSLRLSCAASGFTFGSYGMHWVRQAPGKGLEWVAVISYDGSNKYYADSVKGRFTISRDNSKNTLYLQMNSLRAEDTAVYYCAKGSYYFDYWGQGTLVTVSSGSASAPKLEEGEFSEARVEIVMTQSPDSLAVSLGERATINCKSSQSVNSAYLAWYQHKPGQPPRLLIYGASRRVTGVPDRFSGSGSGTDFTLTISSLQPEDFATYYCQQSYSDPRWTFGQGTKVEIK = Y

State whether the measured mIL11 - average signal reaches 0.3, counting equality as reaching it, for YU100-H06 (antibody) QVQLVESGGGVVQPGRSLRLSCAASGFTFSSYGMHWVRQAPGKGLEWVAVISYDGSNKYYADSVKGRFTISRDNSKNTLYLQMNSLRAEDTAVYYCAKIGATDPLDYWGQGTLVTVSSGSASAPKLEEGEFSEARIQSALTQPRSVSGSPGQSVTISCTGTSSDVGGYNYVSWYQQHPGKAPKLMIYDVTKRPSGVPDRFSGSKSGNTASLTISGLQAEDEADYYCSSYAGSYTWVFGGGTKLTVL
Y
